- method description: Toxicity to human neutrophils, trypan blue exclusion
- Assay type: cell-based
- experimental context: human, neutrophils; neutrophil; 45 μM; 1 hour incubation; control 99; read-out: Cell viability (%)
Parameter viability at 1 h, 45 µM: see the listing below.
Numbers only here, please. The scale is %.

| compound | val |
| --- | --- |
| CCCCCCCCCCCCC/C=C/[C@@H](O)[C@@H](N)CO | 5 |

Kindly consider the entry below.
[in] Specify viability at 1 h, 45 µM for CCCCCCCCCCCCC/C=C/[C@@H](O)[C@@H](N)COP(=O)(O)O [SPN-1-P, sphingosine-1-phosphate] and stop.
[out] 98
